Listed below: neutralization IC50 values for each entry.
TARGET_ENTITY: Env of HIV-1 strain 251-18 (HIV-1)
ASSAY_PROTOCOL: cell-based or functional assay
PROPERTY: neutralization IC50

γ3κ11 (antibody, V domains shown) VH: QIHLVQSGTEVKKPGSSVTVSCKAYGVNTFGLYAVSWVRQAPGQRLEYIGQIRRWKSSASHHFRGRVTVSAVDPTGSSPPISSLEIRDLTTDDTAVYFCTTTSTSDYWSGLHNERGTAFSSWGQGTLISVSA VL: DIQMTQSPSTLSASVGGTVRISCRASQSITGGWLAWYHQRPGKAPRLLIYRGSRLLGGVPSRFSGSAAGTDFTLTIANLQAEDFGTFYCQQYDTYPGTFGQGTKVEVKR; > 15 µg/mL
γ46κ11 (antibody, V domains shown) VH: QIHLVQSGTEVKKPGSSVTVSCKAYGVNTFGLYAVNWVRQAPGQGLEYIGQIWRWKSSASHHFRGRVLISAVDLTGSSPPISSLEIKNVTSDDTAVYFCTTTSTYDKWSGLHHDGVVAFSSWGQGTLISVSA VL: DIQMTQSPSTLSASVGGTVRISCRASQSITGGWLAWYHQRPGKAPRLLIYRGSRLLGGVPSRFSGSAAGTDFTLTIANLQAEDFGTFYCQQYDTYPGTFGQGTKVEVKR; > 15 µg/mL
γ22κ11 (antibody, V domains shown) VH: QIHLVQSGTEVKKPGSSVTVSCKAYGVNTFGLYAVNWVRQAPGQSLEYIGQIWRWKSSASHHFRGRVLISAVDLTGPSPPISSLEIKNLTSDDTAVYFCTTTSTYDKWSGLHHDGVMAFSSWGQGTLISVSA VL: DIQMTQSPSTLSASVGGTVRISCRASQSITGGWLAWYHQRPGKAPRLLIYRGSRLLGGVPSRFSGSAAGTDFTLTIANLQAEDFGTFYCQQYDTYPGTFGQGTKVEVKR; > 15 µg/mL

The values you see were collected from patent US20180171001A1.
